Settings: in 1,4-dioxane, 308.15 K
ASSAY READOUT: solubility (mole fraction)

* OC(Cn1cncn1)(Cn1cncn1)c1ccc(F)cc1F | 0.0194

====

Conditions: in THF, 313.15 K
ASSAY READOUT: solubility (mole fraction)

* OC(Cn1cncn1)(Cn1cncn1)c1ccc(F)cc1F | 0.0225

====

Conditions: in n-propanol, 318.15 K
ASSAY READOUT: solubility (mole fraction)

- OC(Cn1cncn1)(Cn1cncn1)c1ccc(F)cc1F: 0.021

====

Conditions: in ethanol, 323.15 K
ASSAY READOUT: solubility (mole fraction)

• OC(Cn1cncn1)(Cn1cncn1)c1ccc(F)cc1F = 0.0354
